Study system: human PPAR α (Homo sapiens, UniProt Q07869)
Construct: expressed in transfected cells; host or cells: HepG2 (ATCC HB-8065) or 293T cells (ATCC CRL-1573)
Sequence (Q07869 239-466 limits assumed): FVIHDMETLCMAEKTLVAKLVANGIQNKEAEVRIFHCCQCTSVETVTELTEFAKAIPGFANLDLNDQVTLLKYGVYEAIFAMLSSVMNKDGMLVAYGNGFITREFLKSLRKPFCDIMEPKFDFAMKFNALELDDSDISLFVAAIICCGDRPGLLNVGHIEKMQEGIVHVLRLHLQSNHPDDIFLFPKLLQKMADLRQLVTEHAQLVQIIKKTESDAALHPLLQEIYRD
Procedure text: Exogeneous PPAR α agonist assay (GAL4 DNA binding domain/PPAR α ligand binding domain, luciferase) in HepG2 cells
Type: cell-based
Condition summary: 25 μM compound, 48 hours, luciferase activity increase relative to the control
Measurement name: Activity at 25 μM Step 1 HepG2 cell

Molecule | Activity at 25 μM Step 1 HepG2 cell
CN(c1ccc(Cl)cc1)S(=O)(=O)N(CC(=O)O)Cc1ccc(OCCc2coc(-c3ccccc3)n2)cc1 [Example 133] | 34
Cc1ccc(-c2nc(CCOc3cccc(CN(CC(=O)O)S(=O)(=O)N(C)C(C)C)c3)c(C)o2)cc1 [Example 64] | 30
C#CCN(C)S(=O)(=O)N(CC(=O)O)Cc1cccc(OCCc2nc(-c3ccc(C(F)(F)F)cc3)oc2C)c1 [Example 70] | 34
